Tested on: oligonucleotide duplexes
Assay: Tm values and thermodynamic parameters of duplex formation (absorbance vs. temperature melting curves)
Format: binding
Details: duplex formation (ΔG°298); 10 mM Na-cacodylate, 100 mM NaCl, 10 mM MgCl2, pH 7; 5 μM single strand; MeltWin 3.0
In the oligonucleotide strings, read from the 5' end, every base follows the letter of its sugar. An asterisk marks phosphorothioate; unmarked linkages are phosphodiester. Other units and linkages are bracketed, terminal groups are in braces. A string of capitals states the bases alone. [z2A] = 2-aza-2'-deoxyadenosine; d = 2'-deoxy (DNA)
Classify as follows. Reported ΔG greater than or equal to -10 kcal/mol: class 1. Reported ΔG below: class 0.

>  <substance>
5′-d(TAGGTC6ATACT) 3′-d(ATCCAGTTATGA): duplex SEQ ID NO: 3 with SEQ ID NO: 2; 6: z^2Ad; one z^2Ad-dT pair (chain 1 TAGGTCAATACT; chain 1: DNA, [z2A] at 7, backbone not given here; chain 2: unmodified DNA)

>  <tgt>
oligonucleotide duplexes

>  <qualitative.label>
class 1

$$$$
>  <substance>
5′-d(TAGGTC66TACT) 3′-d(ATCCAGAAATGA): duplex SEQ ID NO: 5 with SEQ ID NO: 6; 6: z^2Ad; two z^2Ad-dA pairs (chain 1 TAGGTCNNTACT; z2Ad modified nucleosides; modified_base (7)..(8) n = 2-Aza 2′-deoxyadenosine)

>  <tgt>
oligonucleotide duplexes

>  <qualitative.label>
class 1

$$$$
>  <substance>
5′-d(TAGGTCAATACT) 3′-d(ATCCAGGGATGA): unmodified duplex SEQ ID NO: 1 with SEQ ID NO: 8; two dA-dG mismatches (unmodified DNA) [reference compound]

>  <tgt>
oligonucleotide duplexes

>  <qualitative.label>
class 1

$$$$
>  <substance>
5′-d(TAGGTC66TACT) 3′-d(ATCCAGTTATGA): duplex SEQ ID NO: 5 with SEQ ID NO: 2; 6: z^2Ad; two z^2Ad-dT pairs (chain 1 dTdAdGdGdTdCd[z2A]d[z2A]dTdAdCdT; chain 2: unmodified DNA)

>  <tgt>
oligonucleotide duplexes

>  <qualitative.label>
class 1

$$$$
>  <substance>
5′-d(TAGGTC66TACT) 3′-d(ATCCAGCCATGA): duplex SEQ ID NO: 5 with SEQ ID NO: 7; 6: z^2Ad; two z^2Ad-dC pairs (chain 1 TAGGTCNNTACT; z2Ad modified nucleosides; modified_base (7)..(8) n = 2-Aza 2′-deoxyadenosine)

>  <tgt>
oligonucleotide duplexes

>  <qualitative.label>
class 1

$$$$
>  <substance>
5′-d(TAGGTCAATACT) 3′-d(ATCCAGTTATGA): unmodified standard duplex, SEQ ID NO: 1 with SEQ ID NO: 2 (= SEQ ID NO: 10) (listed as DNA, chemistry not fully specified; one strand is listed 3' to 5') [reference compound]

>  <tgt>
oligonucleotide duplexes

>  <qualitative.label>
class 0

$$$$

---

Tested on: oligonucleotide duplexes
Assay: Tm values and thermodynamic parameters of duplex formation (absorbance vs. temperature melting curves)
Type: binding
Conditions: duplex formation; 10 mM Na-cacodylate, 100 mM NaCl, 10 mM MgCl2, pH 7; 5 μM single strand; MeltWin 3.0
In the oligonucleotide strings, read from the 5' end, every base follows the letter of its sugar. An asterisk marks phosphorothioate; unmarked linkages are phosphodiester. Other units and linkages are bracketed, terminal groups are in braces. A string of capitals states the bases alone. [z2A] = 2-aza-2'-deoxyadenosine; d = 2'-deoxy (DNA)

>  <substance>
5′-d(TAGGTC66TACT) 3′-d(ATCCAGAAATGA): duplex SEQ ID NO: 5 with SEQ ID NO: 6; 6: z^2Ad; two z^2Ad-dA pairs (chain 1 TAGGTCNNTACT; z2Ad modified nucleosides; modified_base (7)..(8) n = 2-Aza 2′-deoxyadenosine)

>  <unit.text>
kcal/mol

>  <ΔH>
-49

$$$$
>  <substance>
5′-d(TAGGTC6ATACT) 3′-d(ATCCAGTTATGA): duplex SEQ ID NO: 3 with SEQ ID NO: 2; 6: z^2Ad; one z^2Ad-dT pair (chain 1 TAGGTCAATACT; chain 1: DNA, [z2A] at 7, backbone not given here; chain 2: unmodified DNA)

>  <unit.text>
kcal/mol

>  <ΔH>
-85

$$$$
>  <substance>
5′-d(TAGGTCAATACT) 3′-d(ATCCAGTTATGA): unmodified standard duplex, SEQ ID NO: 1 with SEQ ID NO: 2 (= SEQ ID NO: 10) (listed as DNA, chemistry not fully specified; one strand is listed 3' to 5') [reference compound]

>  <unit.text>
kcal/mol

>  <ΔH>
-82

$$$$
>  <substance>
5′-d(TAGGTC66TACT) 3′-d(ATCCAGTTATGA): duplex SEQ ID NO: 5 with SEQ ID NO: 2; 6: z^2Ad; two z^2Ad-dT pairs (chain 1 dTdAdGdGdTdCd[z2A]d[z2A]dTdAdCdT; chain 2: unmodified DNA)

>  <unit.text>
kcal/mol

>  <ΔH>
-76

$$$$
>  <substance>
5′-d(TAGGTC6ATACT) 3′-d(ATCCAGGTATGA): duplex SEQ ID NO: 3 with SEQ ID NO: 4; 6: z^2Ad; one z^2Ad-dG pair (chain 1 dTdAdGdGdTdCd[z2A]dAdTdAdCdT; chain 2: unmodified DNA)

>  <unit.text>
kcal/mol

>  <ΔH>
-83

$$$$
>  <substance>
5′-d(TAGGTC66TACT) 3′-d(ATCCAGCCATGA): duplex SEQ ID NO: 5 with SEQ ID NO: 7; 6: z^2Ad; two z^2Ad-dC pairs (chain 1 TAGGTCNNTACT; z2Ad modified nucleosides; modified_base (7)..(8) n = 2-Aza 2′-deoxyadenosine)

>  <unit.text>
kcal/mol

>  <ΔH>
-41

$$$$
>  <substance>
5′-d(TAGGTCAATACT) 3′-d(ATCCAGGGATGA): unmodified duplex SEQ ID NO: 1 with SEQ ID NO: 8; two dA-dG mismatches (unmodified DNA) [reference compound]

>  <unit.text>
kcal/mol

>  <ΔH>
-47

$$$$
>  <substance>
5′-d(TAGGTC66TACT) 3′-d(ATCCAGGGATGA): duplex SEQ ID NO: 5 with SEQ ID NO: 8; 6: z^2Ad; two z^2Ad-dG pairs (chain 1 TAGGTCNNTACT; z2Ad modified nucleosides; modified_base (7)..(8) n = 2-Aza 2′-deoxyadenosine)

>  <unit.text>
kcal/mol

>  <ΔH>
-74

$$$$
